The reported numbers originate from patent US20150086555A1.

- assayed.target: recombinant soluble homotrimeric HA of A/Wisconsin/67/05 (H3N2) (Influenza A virus A/Wisconsin/67/2005(H3N2))
- test.method.notes: trimeric HA microarray, transfection supernatant set 3
- condition.summary: remark: other sources report otherwise
property: Trimeric HA Binding: RLU (RLU)
Give the value in RLU but do not write RLU after it.

Worked examples follow.
TCN-504 (3251_K17) (antibody, V domains shown) VH: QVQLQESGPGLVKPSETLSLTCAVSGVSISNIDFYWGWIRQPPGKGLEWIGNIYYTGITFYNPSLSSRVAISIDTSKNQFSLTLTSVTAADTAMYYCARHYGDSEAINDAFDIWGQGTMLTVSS VL: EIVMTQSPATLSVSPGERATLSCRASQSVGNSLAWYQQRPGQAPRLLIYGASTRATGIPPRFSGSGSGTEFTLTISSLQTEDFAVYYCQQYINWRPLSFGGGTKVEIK ... 21400
TCN-529 (5297_H01) (antibody, V domains shown) VH: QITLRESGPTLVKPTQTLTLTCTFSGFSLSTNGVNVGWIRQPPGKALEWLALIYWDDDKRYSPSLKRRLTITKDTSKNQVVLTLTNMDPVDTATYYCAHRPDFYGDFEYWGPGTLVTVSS VL: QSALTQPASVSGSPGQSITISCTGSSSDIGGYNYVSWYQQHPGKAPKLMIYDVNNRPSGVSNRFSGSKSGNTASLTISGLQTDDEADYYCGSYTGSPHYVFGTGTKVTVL ... 2940

We now examine a further binder.
Summary for this binder, TCN-532 (5262_H18) (antibody, V domains shown) VH: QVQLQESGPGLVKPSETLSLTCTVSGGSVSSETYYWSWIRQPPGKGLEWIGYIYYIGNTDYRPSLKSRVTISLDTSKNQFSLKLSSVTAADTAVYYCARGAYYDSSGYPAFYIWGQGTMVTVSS VL: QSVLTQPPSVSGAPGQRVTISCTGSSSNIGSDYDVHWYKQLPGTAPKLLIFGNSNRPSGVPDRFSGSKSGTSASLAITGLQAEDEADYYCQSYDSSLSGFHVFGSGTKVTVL : Trimeric HA Binding: RLU is 9970
